Tested on: GHRH stimulated GH secretion
Assay: GH secretion in vivo, rat, intravenous infusion with repeated GHRH stimulation
Details: Tables 8/9, urethane, 15′ of infusion
Could you please mark rule met for values of GH, Ur Inf15′ +GHRH below 9 µg/kg/h and rule not met for values at or above it?

molecule	qualitative-label
C[C@@H](O)[C@@H]1NC(=O)[C@H](CCCCN)NC(=O)[C@@H](Cc2c[nH]c3ccccc23)NC(=O)[C@H](Cc2ccccc2)NC(=O)[C@@H](NC(=O)[C@H](N)Cc2ccccc2)CSSC[C@@H](C(=O)N[C@H](CO)[C@@H](C)O)NC1=O [Octreotride, Octreotide, reference compound]	rule met
Cc1cccc2c(CC3C(=O)N(CCCCCN)C(=O)N3S(=O)(=O)c3ccc(Oc4ccc(O)cc4)c(CN)c3)c[nH]c12 (stereo not drawn) [Compound 45]	rule not met
Cc1cccc2c(CC3C(=O)N(CCCCCN)C(=O)N3S(=O)(=O)c3ccc(Oc4ccc(O)cc4)c(C(=O)N(C)C)c3)c[nH]c12 (stereo not drawn) [Compound 46]	rule not met
Cc1cccc2c(CC3C(=O)N(CCCCCN)C(=O)N3S(=O)(=O)c3ccc(Oc4ccc(O)c(Cl)c4)c(C#N)c3)c[nH]c12 (stereo not drawn) [Compound 44]	rule not met
N#Cc1cc(S(=O)(=O)N2C(=O)N(CCCCCN)C(=O)C2Cc2c[nH]c3ccccc23)ccc1Oc1ccc(N)cc1 (stereo not drawn) [Compound 42]	rule not met
